test: Pharmacokinetics after single intravenous bolus of E2 and P in sheep; type: in vivo; details: Dorset crossbred, plasma, E2 160 μg, P 10 mg, mean, n = 2, read-out: CL, total body clearance (converted)
Assay readout: clearance (mL/min)

A = C[C@]12CC[C@@H]3c4ccc(O)cc4CC[C@H]3[C@@H]1CC[C@@H]2O [E2, 17β-estradiol]
B = CC(=O)[C@H]1CC[C@H]2[C@@H]3CCC4=CC(=O)CC[C@]4(C)[C@H]3CC[C@]12C
Problem: Select the item with the higher value of clearance from the options A and B listed. Your answer should be the label attached to the chosen record.
Result: B

* * *

assay: Pharmacokinetics after single intravenous bolus of E2 and P in sheep; format: in vivo; conditions: Dorset crossbred, plasma, E2 160 μg, P 10 mg, mean, n = 2
Assay readout: AUC(0-inf) (ng·h/mL)

A = C[C@]12CC[C@@H]3c4ccc(O)cc4CC[C@H]3[C@@H]1CC[C@@H]2O [E2, 17β-estradiol]
B = CC(=O)[C@H]1CC[C@H]2[C@@H]3CCC4=CC(=O)CC[C@]4(C)[C@H]3CC[C@]12C
Problem: Which value of AUC(0-inf) is smaller, the one for A or the one for B ? Your answer should be the label attached to the chosen record.
Result: A
(A: 1.79 ng·h/mL, B: 20 ng·h/mL)

* * *

test: Pharmacokinetics after single intravenous bolus of E2 and P in sheep; assay type: in vivo; conditions: Dorset crossbred, plasma, E2 160 μg, P 10 mg, mean, n = 2, read-out: T1/2, terminal half-life (converted)
Assay readout: half-life (h)

C[C@]12CC[C@@H]3c4ccc(O)cc4CC[C@H]3[C@@H]1CC[C@@H]2O [E2, 17β-estradiol]: 2.22
CC(=O)[C@H]1CC[C@H]2[C@@H]3CCC4=CC(=O)CC[C@]4(C)[C@H]3CC[C@]12C [P, progesterone]: 2.75
